Numbers sourced from ChEMBL document CHEMBL1157539.

Record form. Attribute: Inhibition. Fill in for each entry.
# Tested on: HepG2
# test_summary: GSK_TCMDC: Percent inhibition of human HepG2 cell line. Test compounds present at 10uM.
# Assay type: functional
Phrase the answer as number then unit, nothing more needed.

Please give the measured Inhibition for this molecule: `O=S(=O)(c1ccc(NC(S)=NN=Cc2ccccn2)cc1)N1CCCCC1` 43%

Please give the measured Inhibition for this molecule: `COc1cc2nc(NCCCN3CCCCC3)nc(NCc3ccccc3)c2cc1OC` 12%

Please give the measured Inhibition for this molecule: Cc1ccc(-c2nnc(Nc3ccc(CC(N)=O)cc3)c3ccccc23)cc1S(=O)(=O)NCC1CCCO1 (centres undefined) 0%

Please give the measured Inhibition for this molecule: `CC(=O)Nc1nc(C(=O)Nc2ccc(-c3ccc(-c4nc5cccc(C)c5[nH]4)cc3)cc2)cs1` 42%

Please give the measured Inhibition for this molecule: `COc1ccc2nccc([C@H](O)CN3CCC(NCc4ccc5c(c4C)OCCO5)CC3)c2n1.Cl` 26%

Please give the measured Inhibition for this molecule: Cc1nn(CC(O)Cn2c3ccc(Br)cc3c3cc(Br)ccc32)c(C)c1Br (centres undefined) 4%

Please give the measured Inhibition for this molecule: `COc1ccc(-c2cn3c(C(=O)Nc4ccccc4Cl)c(-c4ccccc4)c4c3n2CCCC4)cc1` 7%

Please give the measured Inhibition for this molecule: `COCCNCc1ncsc1-c1ccc2c(Nc3ccc(Oc4ccccc4)cc3)ccnc2c1` 34%

Please give the measured Inhibition for this molecule: `Cc1cccc2nc(-c3ccc(-c4ccc(C(=O)NCCN5CCCC5)cc4)cc3)[nH]c12` 25%

Please give the measured Inhibition for this molecule: `CCO[C@H]1CN[C@H](C#Cc2cc3c(Nc4ccc(OCc5cccc(F)c5)c(Cl)c4)ncnc3s2)C1.O=C(O)C(F)(F)F` 8%

Please give the measured Inhibition for this molecule: `Clc1ccc(-c2cnc3ccc(NCc4ccncc4)nn23)cc1` 25%

Please give the measured Inhibition for this molecule: `Cc1cc(C=C(P(=O)(OC(C)C)OC(C)C)P(=O)(OC(C)C)OC(C)C)c2ccccc2c1O` 15%

Please give the measured Inhibition for this molecule: `COc1ccc(Cc2nc3c(n2C(C)=O)SC(c2ccc(Cl)c(Cl)c2)=NN3C(C)=O)cc1` 0%

Please give the measured Inhibition for this molecule: `O=C(N[C@@H](Cc1ccccc1)C(=O)NC1CCCCC1)c1ccc(O)c(-c2cccc(C(F)(F)F)c2)c1` 11%

Please give the measured Inhibition for this molecule: `CC(C)(C)c1cc(C(=O)N2CCN(c3ncnc4ccsc34)CC2)n(Cc2ccccc2)n1` 2%

Please give the measured Inhibition for this molecule: `CC(CO)(CO)NCc1cc2c3ccccc3c(CNC(C)(CO)CO)cc2c2ccccc12.CS(=O)(=O)O` 40%

Please give the measured Inhibition for this molecule: `COc1cc2ncnc(Nc3ccc(OCc4ccccc4)c(OCc4ccccc4)c3)c2cc1OC.Cl` 4%

Please give the measured Inhibition for this molecule: O=C(O)c1ccc(NC(=O)C2CC(=O)N(Cc3ccc(Cl)cc3)C(=Nc3ccc(Cl)cc3)S2)cc1 (centres undefined) 0%

Please give the measured Inhibition for this molecule: `Cc1cnc(C(=O)Nc2cccc(-c3cccc(-c4nc5cc(F)ccc5[nH]4)c3)c2)cn1` 25%

###

# Tested on: HepG2
# test_summary: GSK_TCMDC: Percent inhibition of human HepG2 cell line. Test compounds present at 10uM.
# Assay type: functional
measurement_name: Inhibition (%)
Value expressed in %; do not type the unit.

Please give the measured Inhibition for this compound: CCOC(=O)C1=C(C)NC2=C(C(=O)CC(C)(C)C2)C1c1ccc(Cl)cc1 (centres undefined) 4

Please give the measured Inhibition for this compound: `CS(=O)(=O)Cc1ccc(Nc2nccc(N3CCCc4cc(NC(=O)Nc5cccc(C(F)(F)F)c5)ccc43)n2)cc1` 46

Please give the measured Inhibition for this compound: `Nc1nccc2ccc(-c3ccncc3)cc12` 19

Please give the measured Inhibition for this compound: `COc1cc(NC(=O)Nc2ccc(Br)cc2C(=O)Nc2ccc(Br)cc2)cc(OC)c1OC` 0

Please give the measured Inhibition for this compound: `COc1ccc(NC(=O)N2CCc3ccc(OCCN(C(C)C)C(C)C)cc32)cc1C(F)(F)F.O=C(O)C(F)(F)F` 0

Please give the measured Inhibition for this compound: `CC1(C)N=C(N)N=C(N)N1OCc1cc(Cl)c(CON2C(N)=NC(N)=NC2(C)C)cc1Cl` 21

Please give the measured Inhibition for this compound: `Br.Cc1cc(Br)c(OCCCON2C(=N)N=C(N)NC2(C)C)c(Br)c1` 62

Please give the measured Inhibition for this compound: `O=S(=O)(c1c(Cl)cccc1Cl)N1CCCCC(c2ccc(C(F)(F)F)cc2)=N1` 11

Please give the measured Inhibition for this compound: `CCOc1ccc(-c2nonc2NC(=O)c2ccc(Cl)cc2)cc1OCC` 28

###

# System: Plasmodium falciparum
# test_summary: GSK_TCMDC: Inhibition of Plasmodium falciparum Dd2 in whole red blood cells, using parasite LDH activity as an index of growth. Test compounds present at 2uM
# Format: functional
Inhibition class ranges: interval 1 = under 40%, interval 2 = from 40% up to 70%, interval 3 = 70% and over

Which Inhibition category applies to `CN1CCN(CCCCNc2c3ccccc3nc3ccccc23)CC1` here? interval 1

Which Inhibition category applies to CCCCCN1CCC(NS(=O)(=O)c2cccc(C(=O)Nc3cccc(C(F)(F)F)c3)c2)C1.O=C(O)C(F)(F)F (centres undefined) here? interval 1

Which Inhibition category applies to `COC(=O)c1cccc(CN(CCC(O)(C(F)(F)F)C(F)(F)F)C(=O)CC2CCCC2)c1` here? interval 2

Which Inhibition category applies to `Cc1noc(C)c1-c1cccc(CNCc2ccc(-c3ccc(-c4nc5cc(C(F)(F)F)ccc5[nH]4)s3)cc2)c1.O=C(O)C(F)(F)F` here? interval 3

Which Inhibition category applies to `CCN(CC)CCNc1ccnc2[nH]c3ccc(I)cc3c12` here? interval 3

Which Inhibition category applies to CCC(=O)NC(c1ccco1)c1cc(Cl)c2cccnc2c1O (centres undefined) here? interval 3

Which Inhibition category applies to `CN(C)CCn1cc(C(=O)c2cc(Cl)ccc2O)cc1-c1nc2ccccc2c(=O)[nH]1` here? interval 3

Which Inhibition category applies to NC1CCN(Cc2cccc(-c3cccc(-c4nc5ccccc5[nH]4)c3)c2)C1.O=C(O)C(F)(F)F (centres undefined) here? interval 1

Which Inhibition category applies to CN(C)c1ccc(-c2csc(C(=O)NC3CCN(CCC(C)(C)C)C3)c2)cc1.O=C(O)C(F)(F)F (centres undefined) here? interval 1

Which Inhibition category applies to CCc1c(CCNCCCCCCNC(C)Cc2ccc3c(c2CC)OCO3)ccc(OC)c1OC.Cl (centres undefined) here? interval 2

Which Inhibition category applies to `O=C(CC1CCCC1)Nc1ccc2c(c1)CCC2` here? interval 1

Which Inhibition category applies to `COc1ccccc1C(=O)Nc1ccc(Nc2nc(C)cc(N(C)C)n2)cc1` here? interval 3

Which Inhibition category applies to `Cc1ccc(O)c(-c2cc(C(=O)Nc3ccc(S(=O)(=O)N4CCCCCC4)cc3)[nH]n2)c1` here? interval 3

Which Inhibition category applies to `Cc1cccc2nc(-c3ccc(-c4ccc(NC(=O)CN5CCN(C)CC5)cc4)cc3)[nH]c12` here? interval 3

Which Inhibition category applies to Cl.N#Cc1ccc2c(c1)CCN(CCC1CCC(NC(=O)Nc3ccncc3)CC1)C2 (centres undefined) here? interval 1

Which Inhibition category applies to `CCOCc1cnc(C)nc1CNC(=O)c1c(C)[nH]c2ccc(C)cc12` here? interval 2

Which Inhibition category applies to `COc1ccc2nccc([C@@H](O)CN3CCC(c4cc(-c5ccc(Cl)cc5)[nH]n4)CC3)c2n1` here? interval 2

Which Inhibition category applies to `Cc1cccc2nc(-c3cccc(-c4ccc(NC(=O)C(C)(C)c5ccccn5)cc4)c3)[nH]c12` here? interval 1

###

Record form. Attribute: Inhibition. Fill in for each entry.
# Tested on: Plasmodium falciparum
# test_summary: GSK_TCMDC: Inhibition of Plasmodium falciparum 3D7 in whole red blood cells, using parasite LDH activity as an index of growth. Test compounds present at 2uM
# Format: functional
Value expressed in %; do not type the unit.

Please give the measured Inhibition for this compound: `COc1ccc2nccc([C@@H](O)CN3CCC(NC(=O)[C@@H]4Cc5ccccc5CN4C(=O)OC(C)(C)C)CC3)c2c1` 92

Please give the measured Inhibition for this compound: `COc1cc(-c2nc3c4ccccc4c4ccccc4c3[nH]2)cc(OC)c1OC` 90

Please give the measured Inhibition for this compound: `Cc1ccc2[nH]c(C)c(Br)c(=O)c2c1` 95

Please give the measured Inhibition for this compound: `COc1cccc(CN(C(=O)Nc2ccccc2F)[C@H]2C[C@H]3C(=O)Nc4cc(F)ccc4C(=O)N3C2)c1` 93

Please give the measured Inhibition for this compound: CC(C)(C)c1ccc(CN2CCCCC(NC(=O)c3cc(-c4ccccc4Cl)cs3)C2)cc1.O=C(O)C(F)(F)F (configuration not stated) 100

Please give the measured Inhibition for this compound: Cl.O=[N+]([O-])c1ccc(-c2nc3cc(C4=NC5CCCCC5N4)ccc3[nH]2)cc1 (configuration not stated) 100

Please give the measured Inhibition for this compound: `CN1CCN(CCCN(Cc2csc(-c3ccc(CNCc4ccccc4)cc3)n2)S(=O)(=O)c2cccc3cccnc23)CC1.O=C(O)C(F)(F)F` 89

Please give the measured Inhibition for this compound: `COc1ccc(C(=O)Cn2nc(-c3ccc(Cl)cc3)ccc2=O)c(OC)c1` 93

Please give the measured Inhibition for this compound: `CC(CO)(CO)NCc1cc2ccc3ccsc3c2c2ccccc12.CS(=O)(=O)O` 96

Please give the measured Inhibition for this compound: `O=C(CNC1CCCCC1)Nc1cccc(C(=O)Nc2cccc(C(F)(F)F)c2)c1.O=C(O)C(=O)O` 93

Please give the measured Inhibition for this compound: O=C(Nc1ccc2c(c1)CCN2C1CCN(Cc2ccc(F)cc2Cl)C1)c1ccco1 (configuration not stated) 97

Please give the measured Inhibition for this compound: N#Cc1ccccc1C1CCN(C2CCC(Nc3cc(-c4cccnc4)ccn3)CC2)CC1 (configuration not stated) 100

Please give the measured Inhibition for this compound: `CCCN(CCC)CCCNc1ccc(C(=O)Nc2ccc(OCC)cc2)cc1[N+](=O)[O-]` 89

Please give the measured Inhibition for this compound: `COc1ccc(Nc2nc(NCc3ccco3)c3ccccc3n2)cc1.Cl` 99

Please give the measured Inhibition for this compound: COc1cc(F)c2ncc(Cl)c(C(O)CN3CCC(NC(=O)c4ccc5c(c4)NC(=O)CS5)CC3)c2c1.Cl (configuration not stated) 98

Please give the measured Inhibition for this compound: CC1CCC(C(C)C)C(OC(=O)CSc2nnc3c(n2)[nH]c2ccccc23)C1 (configuration not stated) 88

Please give the measured Inhibition for this compound: CCCC(C)Nc1nc(C)cc(N[C@@H](Cc2ccccc2)C(=O)NCCc2ccccc2)n1.O=C(O)C(F)(F)F (some centres not stated) 97

Please give the measured Inhibition for this compound: `Fc1ccc2[nH]c(-c3ccc(-c4ccc(CN5CCC(CCN6CCCCC6)CC5)cc4)cc3)nc2c1.O=C(O)C(F)(F)F` 100

Please give the measured Inhibition for this compound: CC1(C)CCCC(=Cc2ccc(Br)cc2)C1(O)Cn1ccnc1 (configuration not stated) 99

Please give the measured Inhibition for this compound: `CCN(CC)CCCNCc1ccc(-c2ccc(C(F)(F)F)cc2)cc1` 95

Please give the measured Inhibition for this compound: `Cc1cccc2nc(-c3cccc(-c4cccc(NC(=O)c5cccnc5)c4)c3)[nH]c12` 100

Please give the measured Inhibition for this compound: `CCn1cc(-c2cc(C(=O)Nc3ccc(OC)cc3C)c3ccccc3n2)c(C)n1` 97

Please give the measured Inhibition for this compound: COc1cccc(C(=O)C2CC2CN(C)CC(O)c2cc(C)c(OC)cc2C)c1.O=C(O)C(F)(F)F (configuration not stated) 88

Please give the measured Inhibition for this compound: `Cc1nc2ccccc2c(O)c1-c1ccc(Cl)cc1` 93

Please give the measured Inhibition for this compound: `O=C(/C=C/c1ccc([N+](=O)[O-])cc1)N1CCC(NS(=O)(=O)c2cccc(C(F)(F)F)c2)CC1` 94

Please give the measured Inhibition for this compound: `CS(=O)(=O)c1cccc2sc(N3CCN(C(=O)c4ccc([N+](=O)[O-])o4)CC3)nc12` 84

Please give the measured Inhibition for this compound: `CN1CCN(Cc2ccc(-c3cc4nccc(Nc5ccc(Oc6ccccc6)cc5)c4cc3Cl)o2)CC1` 100

Please give the measured Inhibition for this compound: `Cl.FC(F)(F)c1cc(Nc2ccc(Oc3ccccc3)cc2)c2cc(-c3ccncc3)ccc2n1` 100

Please give the measured Inhibition for this compound: `CCOC(=O)[C@H](Cc1cccc2ccccc12)NC(=O)[C@H](CCC(=O)OC(C)(C)C)NC(=O)c1ccc(N(C)Cc2cnc3nc(N)nc(N)c3n2)cc1` 93

Please give the measured Inhibition for this compound: `Cc1onc(-c2ccccc2)c1C(=O)Nc1nc(-c2ccccn2)nc2ccsc12` 97

Please give the measured Inhibition for this compound: `Cc1cccc2[nH]cc(C3CCN(CCC4CCN(C(=O)/C=C/c5ccc(Cl)c(Cl)c5)CC4)CC3)c12` 91

Please give the measured Inhibition for this compound: `Cc1cccc(CNc2nccc3[nH]c4ccccc4c23)c1.O=C(O)C(F)(F)F` 92

Please give the measured Inhibition for this compound: `COc1ccc(C)c(Nc2ccnc(Nc3ccc(-c4cnc[nH]4)cc3)n2)c1.Cl` 97

Please give the measured Inhibition for this compound: `Cc1ccc2[nH]c(-c3ccc(C=CC(=O)NC4CCN(Cc5ccccc5)CC4)cc3)nc2c1` 100

Please give the measured Inhibition for this compound: `CCCN1CCC(NCc2cn(C)nc2-c2ccc(Oc3ccccc3)cc2)CC1` 88

Please give the measured Inhibition for this compound: `Cc1c(C)n(C2CCCCC2)c2ncnc(OC3CCN(CC(=O)NC4CC4)CC3)c12` 94

Please give the measured Inhibition for this compound: `CCC(C)(C)c1ccc(OCCCC(=O)Nc2ccc(Cl)c([N+](=O)[O-])c2)c(C(C)(C)CC)c1` 92
